PROTOCOL_DESCRIPTION: LD50 determined in the mouse, i.p. and per os (Weil method)
Type: in vivo
CONDITION_CONTEXT: in vivo, po, per os, read-out: LD50 os
ASSAY_METRIC: LD50 (mg/kg)
Numbers only here, please. The scale is mg/kg.

Example entries begin here.
> print(dat)
                                   compound  readout.number
1  COC(=O)C1=C(C)NC(C)=C(C(=O)OC(C)CN(C)CCC(c2ccccc2)c2ccccc2)C1c1cccc([N+](=O)[O-])c1 (stereo not drawn)             197
2  CC1=C(C(=O)OCCN(C)CCC(c2ccccc2)c2ccccc2)C(c2cccc([N+](=O)[O-])c2)C(C(=O)OC(C)C)=C(C)N1 (stereo not drawn)             116

// query LD50 value for entry COC(=O)C1=C(C)NC(C)=C(C(=O)OC(C)(C)CN(C)CCC(c2ccccc2)c2ccccc2)C1c1cccc([N+](=O)[O-])c1 (stereo not drawn)
657
